- method.summary: in vivo
- assay.setup: Wistar, rat, tissue cage fluid (TCF), ip, 30 mg/kg
readout.name: level at 4 day (ng/mL)
// return numeric value only (unit: ng/mL, not printed)

level at 4 day reported for this compound CCCCCCCCCC(=O)N[C@@H](Cc1c[nH]c2ccccc12)C(=O)N[C@H](CC(N)=O)C(=O)N[C@@H](CC(=O)O)C(=O)N[C@@H]1C(=O)NCC(=O)N[C@@H](CCCN)C(=O)N[C@@H](CC(=O)O)C(=O)N[C@H](C)C(=O)N[C@@H](CC(=O)O)C(=O)NCC(=O)N[C@H](CO)C(=O)N[C@@H]([C@H](C)CC(=O)O)C(=O)N[C@@H](CC(=O)c2ccccc2N)C(=O)O[C@@H]1C : 21000
